# credit: patent US20120245137A1

What IC50 was measured for each of the following?
target: CAv1.2 (Homo sapiens, UniProt Q13936); test: FLIPR data, CAv1.2 channel blocking (Table 6); assay type: cell-based; settings: closed state, read-out: CAv1.2 IC50 Closed
Your answer is read as µM, so omit the unit and give the number.

Look up and report measured IC50 (CAv1.2 (Homo sapiens, UniProt Q13936)) for the following molecule: CC(C)([C@H]1C[C@H](NS(=O)(=O)c2ccc(C(F)(F)F)cc2)C1)S(=O)(=O)c1cc(F)cc(C(F)(F)F)c1
5.29

Provide IC50, recorded with CAv1.2 (Homo sapiens, UniProt Q13936), of CC(C)([C@H]1C[C@@H](NC(=O)c2cc(C(F)(F)F)n[nH]2)C1)S(=O)(=O)c1cccc(OC(F)(F)F)c1
9.31

----------
Please provide measured pIC50 for the entries that follow.
target: human α1H T-type channels (Homo sapiens, UniProt O95180); test: T-type calcium channel block, whole cell patch clamp, α1H; details: HEK cells stably expressing human α1H; mainly non-inactivated protocol; values above 10,000 nM represented as 10000
Sequence (O95180 whole entry): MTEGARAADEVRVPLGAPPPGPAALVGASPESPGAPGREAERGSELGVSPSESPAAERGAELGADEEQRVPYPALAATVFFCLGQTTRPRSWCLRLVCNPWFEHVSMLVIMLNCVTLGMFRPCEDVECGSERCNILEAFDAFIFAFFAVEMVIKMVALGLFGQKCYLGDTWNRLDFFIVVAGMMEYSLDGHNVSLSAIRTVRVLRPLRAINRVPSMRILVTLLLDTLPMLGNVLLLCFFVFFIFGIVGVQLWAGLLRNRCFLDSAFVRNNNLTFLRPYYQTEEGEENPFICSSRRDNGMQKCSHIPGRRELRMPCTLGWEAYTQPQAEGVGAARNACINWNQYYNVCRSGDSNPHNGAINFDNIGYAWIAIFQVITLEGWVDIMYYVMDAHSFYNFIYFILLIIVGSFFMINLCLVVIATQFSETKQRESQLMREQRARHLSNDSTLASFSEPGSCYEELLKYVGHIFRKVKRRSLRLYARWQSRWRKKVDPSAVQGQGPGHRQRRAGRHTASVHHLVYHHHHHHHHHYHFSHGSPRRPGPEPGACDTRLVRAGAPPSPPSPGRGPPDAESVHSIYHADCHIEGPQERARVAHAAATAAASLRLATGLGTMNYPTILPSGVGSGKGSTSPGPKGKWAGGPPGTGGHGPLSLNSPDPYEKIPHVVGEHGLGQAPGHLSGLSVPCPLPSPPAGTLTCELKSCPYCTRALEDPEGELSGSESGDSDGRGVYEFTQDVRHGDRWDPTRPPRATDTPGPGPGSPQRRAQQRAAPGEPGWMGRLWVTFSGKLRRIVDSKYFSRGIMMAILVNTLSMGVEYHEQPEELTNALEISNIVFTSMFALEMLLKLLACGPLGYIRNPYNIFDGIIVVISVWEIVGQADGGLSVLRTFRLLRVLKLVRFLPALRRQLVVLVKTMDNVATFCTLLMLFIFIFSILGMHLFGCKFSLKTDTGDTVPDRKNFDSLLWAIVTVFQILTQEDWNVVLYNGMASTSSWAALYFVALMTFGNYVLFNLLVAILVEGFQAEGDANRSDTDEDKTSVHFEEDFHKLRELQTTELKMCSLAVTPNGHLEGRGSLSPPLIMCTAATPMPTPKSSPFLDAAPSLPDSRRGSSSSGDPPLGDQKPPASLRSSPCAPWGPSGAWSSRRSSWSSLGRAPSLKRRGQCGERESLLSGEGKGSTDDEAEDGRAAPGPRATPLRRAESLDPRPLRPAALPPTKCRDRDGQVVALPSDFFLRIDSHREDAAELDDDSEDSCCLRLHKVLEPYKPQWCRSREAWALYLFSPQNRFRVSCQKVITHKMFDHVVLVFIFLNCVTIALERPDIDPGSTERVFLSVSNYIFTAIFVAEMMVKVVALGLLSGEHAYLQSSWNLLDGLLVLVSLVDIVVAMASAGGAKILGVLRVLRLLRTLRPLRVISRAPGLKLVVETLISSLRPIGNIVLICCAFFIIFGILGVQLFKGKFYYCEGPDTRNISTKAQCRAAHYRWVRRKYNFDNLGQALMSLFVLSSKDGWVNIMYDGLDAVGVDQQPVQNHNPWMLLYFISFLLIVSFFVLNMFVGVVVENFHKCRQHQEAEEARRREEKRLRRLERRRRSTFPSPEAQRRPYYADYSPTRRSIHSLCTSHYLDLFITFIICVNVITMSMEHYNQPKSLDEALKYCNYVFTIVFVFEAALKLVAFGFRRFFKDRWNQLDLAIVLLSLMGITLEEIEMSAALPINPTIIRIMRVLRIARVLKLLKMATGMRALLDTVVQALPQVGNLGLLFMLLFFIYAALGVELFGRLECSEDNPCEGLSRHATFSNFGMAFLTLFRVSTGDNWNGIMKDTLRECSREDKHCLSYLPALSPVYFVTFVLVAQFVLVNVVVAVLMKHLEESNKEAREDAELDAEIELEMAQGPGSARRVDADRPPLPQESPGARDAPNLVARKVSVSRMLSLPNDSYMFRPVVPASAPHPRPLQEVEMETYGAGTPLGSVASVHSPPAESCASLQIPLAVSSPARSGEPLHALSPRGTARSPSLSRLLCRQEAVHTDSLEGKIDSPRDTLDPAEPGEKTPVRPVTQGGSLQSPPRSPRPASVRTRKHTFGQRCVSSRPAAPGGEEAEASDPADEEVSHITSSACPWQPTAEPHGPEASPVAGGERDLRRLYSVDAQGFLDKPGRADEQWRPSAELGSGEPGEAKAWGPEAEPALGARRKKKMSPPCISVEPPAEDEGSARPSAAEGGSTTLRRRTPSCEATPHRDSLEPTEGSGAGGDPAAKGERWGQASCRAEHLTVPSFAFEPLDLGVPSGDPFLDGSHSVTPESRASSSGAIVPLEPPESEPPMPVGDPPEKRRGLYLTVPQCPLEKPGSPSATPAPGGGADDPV
Give only the number. pIC50 is defined as minus log10 of concentration in molar units.

Provide pIC50, tested on human α1H T-type channels (Homo sapiens, UniProt O95180), for O=C(NC[C@H]1CC[C@@H](S(=O)(=O)c2cccc(C(F)(F)F)c2)CC1)c1cc(F)cc(Cl)c1 [Compound 29] .
6.37

Write down the reported pIC50 (system: human α1H T-type channels (Homo sapiens, UniProt O95180)) of CC1(CNC(=O)c2ccc(F)c(C(F)(F)F)c2)CCC(S(=O)(=O)c2cccc(C(F)(F)F)c2)CC1 (stereo not shown) [Compound 135]
6.12

Output reported pIC50 of the compound CC(C)(C)c1cc(C(=O)NCC(C)(C)S(=O)(=O)c2cccc(C(F)(F)F)c2)ccn1 [Compound 484] on human α1H T-type channels (Homo sapiens, UniProt O95180).
5.17

Give pIC50 for this entry on human α1H T-type channels (Homo sapiens, UniProt O95180): CC(C)(C)NC(=O)CNC1CCC(C)(S(=O)(=O)c2cccc(C(F)(F)F)c2)CC1 (stereo not shown) [Compound 15]
5.34

----------
target: Human Cav 2.2 channels (Homo sapiens); experiment: Fluorescent assay for CaV2.2 channels using potassium depolarization (VIPR/FLIPR); assay type: cell-based; conditions: FLIPR data; ratio closed/inactivated IC50
endpoint_name: CAv2.2 IC50 Ratio closed/inact.
# print the numeric value only

Please report the measured CAv2.2 IC50 Ratio closed/inact. for Cc1nc(S(=O)(=O)N[C@H]2C[C@H](C(C)(C)S(=O)(=O)c3cc(F)cc(C(F)(F)F)c3)C2)cn1C
1.1

Specify CAv2.2 IC50 Ratio closed/inact. for NC1(CC(=O)NC[C@H]2C[C@H](S(=O)(=O)c3cc(F)cc(C(F)(F)F)c3)C2)CCCCC1 and stop.
2.5

Tell me CAv2.2 IC50 Ratio closed/inact. reported for CC(C)([C@H]1C[C@@H](NC(=O)c2ccc(Cl)c(F)c2)C1)S(=O)(=O)c1cc(F)cc(C(F)(F)F)c1
8.8

Output measured CAv2.2 IC50 Ratio closed/inact. for this item: CC(C)([C@H]1C[C@H](NC(=O)c2ccc(Cl)cn2)C1)S(=O)(=O)c1cccc(C(F)(F)F)c1
9.4
